Tested on: CAPAN-1
Test: Antiproliferative activity against human CAPAN 1 cells incubated for 72 hrs by CCK8 assay
Format: functional, cell-based
Conditions: CAPAN-1, 72 h
value_type: IC50

// IC50 value for Cc1sc2c(c1C)C(c1ccc(Cl)cc1)=N[C@@H](CC(=O)Nc1ccc(C(=O)NO)cc1)c1nnc(C)n1-2 : 150 nM

====

Target: UniProtKB Q13547
Sequence (Q13547 whole entry): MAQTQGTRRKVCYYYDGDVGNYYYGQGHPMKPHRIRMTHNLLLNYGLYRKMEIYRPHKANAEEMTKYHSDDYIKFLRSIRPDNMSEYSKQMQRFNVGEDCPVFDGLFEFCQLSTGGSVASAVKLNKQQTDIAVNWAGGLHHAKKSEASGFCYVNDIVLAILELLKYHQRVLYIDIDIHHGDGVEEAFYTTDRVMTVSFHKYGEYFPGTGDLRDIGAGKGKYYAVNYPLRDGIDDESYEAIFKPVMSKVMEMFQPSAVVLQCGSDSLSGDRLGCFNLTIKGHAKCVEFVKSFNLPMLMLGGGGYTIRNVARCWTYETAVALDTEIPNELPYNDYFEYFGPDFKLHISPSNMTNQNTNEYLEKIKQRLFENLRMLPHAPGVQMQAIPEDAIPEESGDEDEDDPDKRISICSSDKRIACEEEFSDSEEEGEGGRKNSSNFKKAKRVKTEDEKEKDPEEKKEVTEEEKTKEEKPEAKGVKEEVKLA
Assay: Inhibition of human HDAC1 expressed in baculovirus expression system by fluorescence method
value_type: pIC50
Conceptually, pIC50 converts a concentration in mol/L into minus its log10.

The reported pIC50 of the molecule Cc1sc2c(c1C)C(c1ccc(Cl)cc1)=N[C@@H](CC(=O)Nc1ccc(C(=O)NO)cc1)c1nnc(C)n1-2 was 7.68
